assay: Inhibition of yeast alpha-glucosidase using PNP glycoside as substrate preincubated for 30 mins followed by substrate addition measured for 60 secs by spectrophotometric analysis; parameters: species or system Saccharomyces cerevisiae
quantityName: IC50 (µM)

chemsmiles=COc1ccc(C(=O)Oc2cc(O)c3c(=O)c4ccccc4oc3c2)cc1 endpointresult=23.2
chemsmiles=O=C(Oc1cc(O)c2c(=O)c3ccccc3oc2c1)c1ccccc1F endpointresult=31.6
chemsmiles=O=C(Oc1cc(O)c2c(=O)c3ccccc3oc2c1)c1ccccc1Cl endpointresult=21.8

[P] O=c1c2ccccc2oc2cc(O)cc(O)c12
[Q] O=C(Oc1cc(O)c2c(=O)c3ccccc3oc2c1)c1ccc(O)cc1
Task item: Would you mind telling me which has the lower recorded IC50 between P and Q ? Answer = label.
Reply: Q

###

assay: Inhibition of yeast alpha-glucosidase using PNP glycoside as substrate preincubated for 30 mins followed by substrate addition measured for 60 secs by spectrophotometric analysis; design: species or system Saccharomyces cerevisiae
quantityName: IC50 (µM)

molecule="OC[C@H]1NC[C@H](O)[C@@H](O)[C@@H]1O [DUVOGLUSTAT]" endpointresult=40
molecule=Cc1ccc(C(=O)Oc2cc(O)c3c(=O)c4ccccc4oc3c2)cc1 endpointresult=106

[P] CNc1ccc(C(=O)Oc2cc(O)c3c(=O)c4ccccc4oc3c2)cc1
[Q] O=C(Oc1cc(O)c2c(=O)c3ccccc3oc2c1)c1ccccc1
[R] CC(C)(C)[Si](C)(C)Oc1ccc(C(=O)Oc2cc(O)c3c(=O)c4ccccc4oc3c2)cc1
Task item: Sort these molecules on IC50 so the largest reading comes first. Please reply with the labels ordered as requested. Many thanks.
Reply: Q, P, R
(Q: 36.1 µM, P: 19.8 µM, R: 10.6 µM)

[1] O=C(/C=C/c1ccccc1)Oc1cc(O)c2c(=O)c3ccccc3oc2c1
[2] O=C(Oc1cc(O)c2c(=O)c3ccccc3oc2c1)c1cccc(Br)c1
[3] O=C(Oc1cc(O)c2c(=O)c3ccccc3oc2c1)c1cccc2ccccc12
Task item: Sort these molecules on IC50 so the largest reading comes first. Please reply with the labels ordered as requested. Many thanks.
Reply: 1, 3, 2

[I] COc1cc(C(=O)Oc2cc(O)c3c(=O)c4ccccc4oc3c2)cc(OC)c1OC
[II] O=C(Oc1cc(O)c2c(=O)c3ccccc3oc2c1)c1ccc2ccccc2c1
Task item: Would you mind telling me which has the lower recorded IC50 between I and II ? Answer = label.
Reply: II

[A] O=C(Oc1cc(O)c2c(=O)c3ccccc3oc2c1)c1ccccn1
[B] O=C(Oc1cc(O)c2c(=O)c3ccccc3oc2c1)c1ccncc1
Task item: Param pair: A , B . Output: the one whose IC50 is numerically greater. Answer = label.
Reply: A
(A: 42 µM, B: 23.7 µM)
